Tested on: MRSA 97-115
EXPERIMENTAL_PROTOCOL: Antibacterial activity test (MIC)
Type: cell-based, methicillin-resistant Staphylococcus aureus
RECORDED_CONDITIONS: Mueller-Hinton Broth, 37° C., 20 to 24 hours
MEASURE: minimal inhibitory concentration (MIC) (µg/mL)
The reply should be a number in µg/mL, with the unit left off.

* CCCCCCCCCCNC1=NC(C)(C)N=C(NCc2ccc(OC)cc2)N1.O=C(O)CC(=O)O | 0.8
* CCCCCCCCCCNC1=NC(C)(C)N(c2ccc(OC)cc2)C(N)=N1.Cl | 3.1
* CCCCCCCCC1N=C(N)N=C(N)N1c1ccc(OC(F)(F)F)cc1.Cl (centres unmarked) | 6.3
* CCCCCCCCCCCCNC1=NC(C)(C)N=C(N)N1.O=[N+]([O-])O | 3.1
* CC(=O)O.CCCCCCCCCNC1=NC(C)(C)N=C(NCCc2ccccc2)N1 | 0.8

Item under review: `CCCCCCCCCCNC1=NC(C)(C)N=C(NCc2ccc(OC)cc2)N1.Cl` . Reported minimal inhibitory concentration (MIC)? 0.4

Check `CCCCCCCCNC1=NC(C)(C)N(Cc2ccc(Cl)c(Cl)c2)C(N)=N1.Cl` too. 1.6
